Tested on: SK-OV-3
Experiment: NCI tumour cell line growth inhibition, 48 h
The source made the active and inactive calls. No stated cut-off is given here; in the data, active = GI50 up to about 1.1 µM and inactive = higher.

[
  {
    "Molecule": "COc1ccc(NC(C)=O)cc1N1C(=O)/C(=C\\c2cc(OC)c(OC)c(OC)c2)S(=O)(=O)C1c1ccccc1 (stereo not drawn)",
    "GI50": "> 100 µM (inactive)"
  },
  {
    "Molecule": "Cc1cn(CCCCC2=NCCCN2)c(=O)[nH]c1=O",
    "GI50": "> 29.6 µM (inactive)"
  },
  {
    "Molecule": "CC1(C)CCSC(/C=C/c2ccccc2)=N1",
    "GI50": "43.9 µM (inactive)"
  },
  {
    "Molecule": "C=CCn1c(=O)ccn(/C(=C/C(=O)OCC)C(=O)OCC)c1=O",
    "GI50": "25.7 µM (inactive)"
  },
  {
    "Molecule": "CCC1N2CCCCC2[C@@H]2c3[nH]c4ccccc4c3CCN12 (stereo partly drawn)",
    "GI50": "> 100 µM (inactive)"
  },
  {
    "Molecule": "CN1CCC(O)C(CNC23CC4CC(CC(C4)C2)C3)C1 (stereo not drawn)",
    "GI50": "> 100 µM (inactive)"
  },
  {
    "Molecule": "CCCCCCCCCCCCC(O)[C@H]1CC[C@H](C(O)CCCCCC(=O)CCCCC2CC(C(C)=O)C(=O)O2)O1 (stereo partly drawn)",
    "GI50": "9.68 µM (inactive)"
  },
  {
    "Molecule": "COc1cc(OC2OC(CO)C(O)C(O)C2O)c2c(c1)O[C@@H]1[C@H](O)Oc3cc(OC)c(OC)cc3[C@]1(O)C2=O (stereo partly drawn)",
    "GI50": "> 25 µM (inactive)"
  },
  {
    "Molecule": "COC(=O)C1CCC(=O)N1C(c1ccc(OC)cc1)c1ccc2c(c1)OCO2 (stereo not drawn)",
    "GI50": "59.4 µM (inactive)"
  },
  {
    "Molecule": "CC12CN(CC[N+](C)(C)C)CC1(C)C1CCC2O1 (stereo not drawn)",
    "GI50": "> 100 µM (inactive)"
  },
  {
    "Molecule": "CN1Cc2ccccc2S(=O)(=O)n2cccc2C1=O",
    "GI50": "> 100 µM (inactive)"
  },
  {
    "Molecule": "[N-]=[N+]=Nc1nc2ccccc2c(N=[N+]=[N-])c1Cl",
    "GI50": "92 µM (inactive)"
  },
  {
    "Molecule": "Cn1c(=O)nc2n(-c3cc(Cl)ccc3Cl)c3ccccc3nc-2c1=O",
    "GI50": "28 µM (inactive)"
  }
]

====

System: COLO 205
Test: NCI tumour cell line growth inhibition, 48 h
The source made the active and inactive calls. Rule as the data show it: active = GI50 up to about 1.1 µM and inactive = higher.
Outcome codes: active, inactive

[
  {
    "Molecule": "C=CC/N=C1/N=C(CC(=O)OCC)CS1",
    "Class Name": "inactive"
  },
  {
    "Molecule": "O=C(O[C@H]1CCN2C[C@H]3C[C@H](CN4C(=O)CCC[C@H]34)[C@@H]2C1)c1ccc(O)cc1",
    "Class Name": "inactive"
  },
  {
    "Molecule": "Cc1cc(S(=O)(=O)/N=C(\\NN)Nc2ccc(Cl)cc2)c(S)cc1Cl",
    "Class Name": "inactive"
  },
  {
    "Molecule": "CCN(CC)c1ccc2c(c1)Oc1ccc(N(CC)CC)cc1C21Oc2ccccc2-c2c1c1ccccc1n2CC (stereo unspecified)",
    "Class Name": "inactive"
  },
  {
    "Molecule": "Cc1cs/c(=N/c2ccccc2)n1CCC(O)(P(=O)(O)O)P(=O)(O)O",
    "Class Name": "inactive"
  },
  {
    "Molecule": "CC(Oc1ccc(Cl)cc1Cl)C(=O)NN1C(=O)CC(=O)N(c2ccccc2)C1=S (stereo unspecified)",
    "Class Name": "inactive"
  },
  {
    "Molecule": "O=c1c2cc([N+](=O)[O-])ccc2nc2n1CCCCC2",
    "Class Name": "inactive"
  },
  {
    "Molecule": "Cc1ccc(NC(=O)c2cc3ccccc3c(/N=N/c3cc(S(=O)(=O)O)ccc3O)c2O)c(C)c1",
    "Class Name": "inactive"
  },
  {
    "Molecule": "CN1CCC2(CC1)SC[C@H]1C(=O)N(c3ccc(Cl)cc3)C(=O)N12",
    "Class Name": "inactive"
  },
  {
    "Molecule": "Nc1c(-c2ccccc2[N+](=O)[O-])nc2ccccn12",
    "Class Name": "inactive"
  },
  {
    "Molecule": "COC(=O)C1CCC(=O)N1C(c1ccc(OC)cc1)c1ccc2c(c1)OCO2 (stereo unspecified)",
    "Class Name": "inactive"
  },
  {
    "Molecule": "CCOC(=O)c1c(N2CCCC2)[nH]c(=O)c(C(c2c(O)c(C(=O)OCC)c(N3CCCC3)[nH]c2=O)C(C)C)c1O",
    "Class Name": "inactive"
  },
  {
    "Molecule": "CC(=O)OCC1OC(SC2OC(COC(C)=O)C(OC(C)=O)C(OC(C)=O)C2OC(C)=O)C(OC(C)=O)C(OC(C)=O)C1OC(C)=O (stereo unspecified)",
    "Class Name": "inactive"
  },
  {
    "Molecule": "N#Cc1nc(C#N)n(C(=O)c2ccccc2)c1NC(=O)c1ccccc1",
    "Class Name": "inactive"
  },
  {
    "Molecule": "COc1c(Br)cc2ccccc2c1-c1c(OC)c(Br)cc2ccccc12",
    "Class Name": "inactive"
  },
  {
    "Molecule": "CC(C)COC(=O)N1N=NC2C3CC(=O)C(O3)C21 (stereo unspecified)",
    "Class Name": "inactive"
  },
  {
    "Molecule": "COc1ccc(NC(=O)c2cc(OC)c(OC)c(OC)c2)cc1",
    "Class Name": "inactive"
  },
  {
    "Molecule": "N=C(N)SCCN1CCCCC1",
    "Class Name": "inactive"
  },
  {
    "Molecule": "O=C1Cc2ccccc2N1c1c(Cl)cccc1Cl",
    "Class Name": "inactive"
  },
  {
    "Molecule": "CC(O)CN1c2ccccc2Sc2ccc(Cl)cc21 (stereo unspecified)",
    "Class Name": "inactive"
  },
  {
    "Molecule": "COc1cc(OC2OC(CO)C(O)C(O)C2O)c2c(c1)O[C@@H]1[C@H](O)Oc3cc(OC)c(OC)cc3[C@]1(O)C2=O (stereo partly specified)",
    "Class Name": "inactive"
  },
  {
    "Molecule": "O=C1CC2(CCNCC2)C(=O)N1N1CCOCC1",
    "Class Name": "inactive"
  },
  {
    "Molecule": "CN(C)Cc1cc(/N=N/c2ccccc2Cl)cc(CN(C)C)c1O",
    "Class Name": "inactive"
  },
  {
    "Molecule": "CCCSc1ccc2[nH]c(N3C(=O)/C(=C/c4ccc(SC)cc4)N=C3c3ccccc3)cc2c1",
    "Class Name": "inactive"
  },
  {
    "Molecule": "CN1Cc2ccccc2S(=O)(=O)n2cccc2C1=O",
    "Class Name": "inactive"
  },
  {
    "Molecule": "CCc1cccc(CC)c1NC1=CC(=O)C(=O)c2ccccc21",
    "Class Name": "inactive"
  },
  {
    "Molecule": "COC(=O)/C(=N\\NC(=O)c1ccccc1O)C(C#N)c1ccccc1 (stereo unspecified)",
    "Class Name": "inactive"
  },
  {
    "Molecule": "Cc1nc(Nc2ccc(Cl)c(Cl)c2)sc1C(=O)/C=C/c1ccc2c(c1)OCO2",
    "Class Name": "inactive"
  },
  {
    "Molecule": "BrC(Br)=C1C(=C(Br)Br)C(Br)C1Br (stereo unspecified)",
    "Class Name": "active"
  },
  {
    "Molecule": "N#CC1=C(N)OC2=C(CCCc3ccc([N+](=O)[O-])cc32)C1c1ccc(Cl)cc1 (stereo unspecified)",
    "Class Name": "inactive"
  },
  {
    "Molecule": "Cc1cc2c(cc1C)[n+]([O-])c(C(=O)N1CCN(c3ccc([N+](=O)[O-])cc3)CC1)c(C)[n+]2[O-]",
    "Class Name": "inactive"
  }
]
